Target: human NOX4 (Homo sapiens, UniProt Q9NPH5)
Construct: expressed in transfected cells; membrane fraction used
Sequence (Q9NPH5 1-578): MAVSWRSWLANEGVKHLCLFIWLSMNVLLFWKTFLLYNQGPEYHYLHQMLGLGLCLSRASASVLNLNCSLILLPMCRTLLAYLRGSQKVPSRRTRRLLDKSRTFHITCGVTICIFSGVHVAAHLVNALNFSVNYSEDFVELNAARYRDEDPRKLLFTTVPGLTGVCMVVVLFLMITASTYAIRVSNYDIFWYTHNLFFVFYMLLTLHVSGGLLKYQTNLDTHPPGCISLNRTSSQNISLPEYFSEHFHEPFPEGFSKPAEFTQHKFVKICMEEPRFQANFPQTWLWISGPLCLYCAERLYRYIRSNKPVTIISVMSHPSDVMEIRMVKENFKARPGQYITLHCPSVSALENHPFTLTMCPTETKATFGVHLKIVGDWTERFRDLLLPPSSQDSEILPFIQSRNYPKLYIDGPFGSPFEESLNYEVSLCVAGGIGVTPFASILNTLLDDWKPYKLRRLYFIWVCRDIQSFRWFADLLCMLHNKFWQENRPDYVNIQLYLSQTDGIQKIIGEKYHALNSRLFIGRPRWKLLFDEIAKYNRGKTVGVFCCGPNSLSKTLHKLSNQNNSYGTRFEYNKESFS
Sequence (P13498 1-195 partner): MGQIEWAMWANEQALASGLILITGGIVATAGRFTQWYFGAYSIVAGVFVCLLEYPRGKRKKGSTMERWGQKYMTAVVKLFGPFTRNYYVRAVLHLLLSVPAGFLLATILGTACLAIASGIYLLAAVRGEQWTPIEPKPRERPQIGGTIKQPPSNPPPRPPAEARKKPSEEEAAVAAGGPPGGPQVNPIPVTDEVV
Assay: Cell free membrane based in vitro NOX4 assay: H2O2 production by membranes expressing human NOX4, measured with Amplex Red
Assay type: biochemical
Settings: 1.0 μM compound, read-out: Percentage inhibition at 1.0 μM
readout.type: inhibition at 1 µM (%)

INSERT INTO results (compound, tested_on, readout_type, obs_value) VALUES
  ('CCc1nn(CC2CCOCC2)c2[nH]c(-c3ccccc3Cl)c(O)c(=O)c12 [Example 208]', 'human NOX4 (Homo sapiens, UniProt Q9NPH5)', 'inhibition at 1 µM', 82.5),
  ('Cn1nc(Cc2ccccc2Cl)c2c(=O)c(O)c(-c3ccccc3Cl)[nH]c21 [Example 145]', 'human NOX4 (Homo sapiens, UniProt Q9NPH5)', 'inhibition at 1 µM', 90),
  ('Cn1nc(C(F)(F)F)c2c(=O)c(O)c(-c3ccccc3F)[nH]c21 [Example 41]', 'human NOX4 (Homo sapiens, UniProt Q9NPH5)', 'inhibition at 1 µM', 77.7),
  ('CCc1nn(CCn2cccn2)c2[nH]c(-c3ccccc3Cl)c(O)c(=O)c12 [Example 157]', 'human NOX4 (Homo sapiens, UniProt Q9NPH5)', 'inhibition at 1 µM', 95.2),
  ('Cc1nn(C)c2[nH]c(-c3ccc(OC(F)(F)F)c(F)c3)c(O)c(=O)c12 [Example 16]', 'human NOX4 (Homo sapiens, UniProt Q9NPH5)', 'inhibition at 1 µM', 99.7),
  ('Cn1nc(C(F)(F)F)c2c(=O)c(O)c(-c3ccc(O)cc3)[nH]c21 [Example 225]', 'human NOX4 (Homo sapiens, UniProt Q9NPH5)', 'inhibition at 1 µM', 80.1),
  ('CCc1nn(CCC2CCOCC2)c2[nH]c(-c3ccccc3Cl)c(O)c(=O)c12 [Example 212]', 'human NOX4 (Homo sapiens, UniProt Q9NPH5)', 'inhibition at 1 µM', 81.5),
  ('CCn1nc(C)c2c(=O)c(O)c(-c3cccc(C(F)(F)F)c3F)[nH]c21 [Example 104]', 'human NOX4 (Homo sapiens, UniProt Q9NPH5)', 'inhibition at 1 µM', 99.8),
  ('CCc1nn(CCN2CCOC(C)(C)C2=O)c2[nH]c(-c3c(F)cccc3F)c(O)c(=O)c12 [Example 184]', 'human NOX4 (Homo sapiens, UniProt Q9NPH5)', 'inhibition at 1 µM', 78.8),
  ('CCc1nn(CCCN2C[C@@H](C)O[C@@H](C)C2)c2[nH]c(-c3c(F)cccc3F)c(O)c(=O)c12 [Example 206]', 'human NOX4 (Homo sapiens, UniProt Q9NPH5)', 'inhibition at 1 µM', 94.6),
  ('CCc1nn(C)c2[nH]c(-c3ccccc3Cl)c(O)c(=O)c12 [Example 56]', 'human NOX4 (Homo sapiens, UniProt Q9NPH5)', 'inhibition at 1 µM', 82.4),
  ('CCc1nn(C)c2[nH]c(-c3ccc(F)c(C(F)(F)F)c3)c(O)c(=O)c12 [Example 159]', 'human NOX4 (Homo sapiens, UniProt Q9NPH5)', 'inhibition at 1 µM', 71.9),
  ('Cn1nc(CN2CCN(C3CC3)CC2)c2c(=O)c(O)c(-c3c(F)cccc3F)[nH]c21 [Example 216]', 'human NOX4 (Homo sapiens, UniProt Q9NPH5)', 'inhibition at 1 µM', 73.4),
  ('Cn1nc(C(F)(F)F)c2c(=O)c(O)c(-c3ccccc3Cl)[nH]c21 [Example 40]', 'human NOX4 (Homo sapiens, UniProt Q9NPH5)', 'inhibition at 1 µM', 93.3),
  ('Cc1nn(C(C)C)c2[nH]c(-c3c(F)cccc3F)c(O)c(=O)c12 [Example 74]', 'human NOX4 (Homo sapiens, UniProt Q9NPH5)', 'inhibition at 1 µM', 91.1),
  ('COc1ccc(-c2[nH]c3c(c(C)nn3C3CC3)c(=O)c2O)c(F)c1 [Example 114]', 'human NOX4 (Homo sapiens, UniProt Q9NPH5)', 'inhibition at 1 µM', 61),
  ('COc1ccc(-c2[nH]c3c(c(C)nn3CC(F)(F)F)c(=O)c2O)c(F)c1 [Example 70]', 'human NOX4 (Homo sapiens, UniProt Q9NPH5)', 'inhibition at 1 µM', 97.5);
